- tested-on: GST-tagged ROR gamma ligand binding domain (LBD) (Homo sapiens)
- Construct: purchased Invitrogen
- Sequence (P51449 269-508 limits assumed): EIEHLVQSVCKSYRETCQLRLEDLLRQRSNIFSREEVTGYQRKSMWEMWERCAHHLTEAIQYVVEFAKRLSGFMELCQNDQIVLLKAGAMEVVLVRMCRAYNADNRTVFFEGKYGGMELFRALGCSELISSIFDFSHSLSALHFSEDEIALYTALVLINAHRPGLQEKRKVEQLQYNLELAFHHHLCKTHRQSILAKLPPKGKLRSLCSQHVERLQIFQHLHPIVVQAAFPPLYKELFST
- method-summary: TR-FRET assay for ROR gamma (LanthaScreen co-activator peptide recruitment)
- Type: biochemical
- test-conditions: compound 1 μM; TR-FRET ratio 520/495, percent of control
endpoint-label: inhibition at 1 µM (%)

[[record]]
compound = "CCS(=O)(=O)c1ccc(CC(=O)Nc2ccc(OC3(c4ccc(Cl)c(Cl)c4)COC3)cc2)cc1 [Example 46]"
tested_on = "GST-tagged ROR gamma ligand binding domain (LBD) (Homo sapiens)"
endpoint_label = "inhibition at 1 µM"
obs_value = 68.1

[[record]]
compound = "CCS(=O)(=O)c1ccc(CC(=O)Nc2ccc3c(c2)nc(C(C)(C)Oc2ccc(Cl)cc2Cl)n3C)cc1 [Example 84]"
tested_on = "GST-tagged ROR gamma ligand binding domain (LBD) (Homo sapiens)"
endpoint_label = "inhibition at 1 µM"
obs_value = 89.7

[[record]]
compound = "CCS(=O)(=O)c1ccc(CC(=O)Nc2ccc(C#CC(C)(C)Oc3ccc(F)cc3F)cc2)cc1 [Example 69]"
tested_on = "GST-tagged ROR gamma ligand binding domain (LBD) (Homo sapiens)"
endpoint_label = "inhibition at 1 µM"
obs_value = 71.6

[[record]]
compound = "CCC(CC)(Oc1ccc(NC(=O)Cc2ccc(S(=O)(=O)CC)cc2)cc1)c1ccc(F)cc1F [Example 13]"
tested_on = "GST-tagged ROR gamma ligand binding domain (LBD) (Homo sapiens)"
endpoint_label = "inhibition at 1 µM"
obs_value = 56.2

[[record]]
compound = "CCS(=O)(=O)c1ccc(CC(=O)Nc2ccc(C#CC(C)(C)Oc3c(F)cc(F)cc3F)cc2)cc1 [Example 73]"
tested_on = "GST-tagged ROR gamma ligand binding domain (LBD) (Homo sapiens)"
endpoint_label = "inhibition at 1 µM"
obs_value = 75.4

[[record]]
compound = "CCN(C(=O)C(C)(C)Oc1ccc(NC(=O)Cc2ccc(S(=O)(=O)CC)cc2)cc1)c1ccc(Cl)cc1 [Example 127]"
tested_on = "GST-tagged ROR gamma ligand binding domain (LBD) (Homo sapiens)"
endpoint_label = "inhibition at 1 µM"
obs_value = 68

